Settings: buffer; pH 7.4; 200.0 µM
parameter: solubility kinetic (µg/mL)

>>> meas_value("COc1ccccc1CNC(c1ccccc1)c1ccccc1")
3.3
>>> meas_value("O=c1nc(-c2ccccc2)c2cc(SC(F)F)ccc2[nH]1")
1.4
>>> meas_value("C=CCn1c(C)cc(-c2csc(NC)n2)c1C")
8.5
>>> meas_value("CC(=O)N/C(=C/c1ccc2c(c1)OCO2)C(=O)N1CCOCC1")
45
>>> meas_value("CC(=O)c1cccc(NC(=O)CCn2c(=O)oc3ccccc32)c1")
19.7
>>> meas_value("O=S(=O)(NCCc1ccccc1)c1ccc(Br)cc1")
3.5
>>> meas_value("O=C(O)CN=CC1=C(O)CC(c2ccccc2)CC1=O (configuration not stated)")
39.9

* * *

Conditions: buffer; pH 7.4; 200.0 µM
Would you please tag the item satisfied when its solubility kinetic is 2 µg/mL or above, and not satisfied when it is below?

>>> group_label("COc1ccc(NC(=O)COC(C)=O)cc1OC")
"satisfied"
>>> group_label("Cc1cc(C(=O)NNC(=O)C(CCC(N)=O)NS(=O)(=O)c2ccc(Cl)cc2)c(C)o1 (stereo not given)")
"satisfied"
>>> group_label("CC1(C)CC(=O)c2ccc(OCc3ccc([N+](=O)[O-])cc3)cc2O1")
"not satisfied"
>>> group_label("Cc1ccc(CC(=O)NCCCn2ccnc2)cc1")
"satisfied"
>>> group_label("Cc1cc(C(=O)NCc2cccc(Cl)c2)c2ccccc2n1")
"satisfied"
>>> group_label("CCn1cnc2c1c(=O)n(CC(=O)O)c(=O)n2Cc1ccccc1")
"satisfied"
>>> group_label("Cc1nc(-c2ccc([N+](=O)[O-])cc2)nc2[nH]ccc(=O)c12")
"not satisfied"
>>> group_label("CC(C)CC(=O)N1CCN(Cc2ccc3ccccc3c2)CC1")
"satisfied"
>>> group_label("Cc1ccc(Cl)cc1Nc1nc(-c2cccnc2)cs1")
"not satisfied"
>>> group_label("O=C(CSc1nc2c(cnn2-c2ccccc2)c(=O)[nH]1)NCC1CCCO1 (stereo not given)")
"satisfied"
>>> group_label("CCOc1ccc(Br)cc1CNCc1cccnc1")
"satisfied"
>>> group_label("Cn1cc(S(=O)(=O)Nc2ccc(OC(F)(F)F)cc2)c(=O)n(C)c1=O")
"satisfied"
>>> group_label("COc1ccc(C)cc1S(=O)(=O)N1CCCCCC1")
"satisfied"
>>> group_label("CCOC(=O)c1ccc(NC(=O)NCc2ccccc2OC)cc1")
"satisfied"
>>> group_label("Cc1cc(NC(=O)CSc2nccn2-c2ccc([N+](=O)[O-])cc2)no1")
"satisfied"
>>> group_label("CCOc1ccc(C(=O)NCCNC(=O)c2ccc(OCC)cc2)cc1")
"not satisfied"
>>> group_label("COCCCN1CN(Cc2ccco2)CNC1=S")
"satisfied"
>>> group_label("COc1ccc(CNC(=O)c2cc3cc(OC)ccc3oc2=O)cc1")
"not satisfied"
>>> group_label("Cc1ccc(S(=O)(=O)NCC(=O)NNC(=O)c2ccccc2Cl)cc1C")
"satisfied"
>>> group_label("CS(=O)(=O)N1CCN=C1SCc1cccc(F)c1")
"satisfied"
>>> group_label("CC(=O)N(c1ccc(Cl)cc1)c1nc(C)cc(C)c1C#N")
"satisfied"
>>> group_label("CCN1C(=O)c2ccc(C(=O)Nc3ncc(C)s3)cc2C1=O")
"satisfied"
>>> group_label("O=C(CCN1CCN(c2ccccc2)CC1)Nc1ccccc1")
"satisfied"
>>> group_label("O=S(=O)(Nc1ccc(Br)cn1)c1ccc2ccccc2c1")
"not satisfied"
>>> group_label("COC(=O)Cn1c2ccccc2c2nc3ccccc3nc21")
"not satisfied"

* * *

Conditions: buffer; pH 7.4; 200.0 µM
parameter: solubility kinetic (µg/mL)

>>> meas_value("Cc1cccc(Cc2cnc(NC(=O)C3=NCCN3)s2)c1")
7
>>> meas_value("CCOc1ccc2[nH]c(SCC(=O)OC)c([N+](=O)[O-])c2c1")
19.1
>>> meas_value("CC1(C)N=c2ccc([N+](=O)[O-])c(N)c2=[N+]1[O-]")
30
>>> meas_value("O=C(NC1CCN(Cc2ccccc2)CC1)c1ccc2c(c1)OCCCO2")
51.6
>>> meas_value("COc1cc(C=O)ccc1OC(=O)c1cccnc1")
33.7
>>> meas_value("CC1CCN(S(=O)(=O)c2ccc3[nH]c(=O)[nH]c3c2)CC1")
3.2
>>> meas_value("O=C1N(c2ccccc2)C[C@@H]2C[C@@H](c3cccs3)N3CCC[C@@]123")
41.8
>>> meas_value("O=C(Oc1c(-c2ccccc2)c(=O)n2c3c(cccc13)CC2)c1ccccc1")
4.8
>>> meas_value("CCc1ccc(C(=O)NC(=S)NCc2cccnc2)cc1")
39.9
>>> meas_value("CN1CCN(CCNC(=O)Nc2ccccc2[N+](=O)[O-])CC1")
45.5
>>> meas_value("Cc1oc(C(C)(C)C)cc1C(=O)Nc1ccc(N2CCOCC2)cc1")
4.3

* * *

Conditions: buffer; pH 7.4; 200.0 µM
Please use TRUE whenever solubility kinetic is not below 10 µg/mL, and FALSE whenever it is.

>>> group_label("Cc1ncc([N+](=O)[O-])n1CC(=O)Nc1cc(Cl)ccc1Cl")
"FALSE"
>>> group_label("CN(Cc1ccccc1)C(=O)COc1ccc(C(C)(C)C)cc1")
"FALSE"
>>> group_label("CCC(C)c1ccccc1NC(=O)CN(CC)CC(=O)Nc1ccc2c(c1)OCCO2 (centres undefined)")
"TRUE"
>>> group_label("O=C(CCNC(=O)c1ccccc1Cl)Nc1ccc(S(=O)(=O)Nc2nccs2)cc1")
"TRUE"
>>> group_label("C=CCC(Nc1ccccc1)c1cccc(OC)c1OC (centres undefined)")
"TRUE"
>>> group_label("COC(=O)c1sccc1NC(=S)Nc1cc(C)ccc1OC")
"TRUE"
>>> group_label("COC(=O)C1CCN(c2cc(Cl)nc(N)n2)CC1")
"TRUE"
>>> group_label("O=C(Nc1ccccc1F)N1CCc2ccccc2C1")
"TRUE"
>>> group_label("Cc1ccc(NC(=O)N(CCC(=O)O)Cc2ccccc2)cc1")
"TRUE"
>>> group_label("COc1cc(NC(=O)CN2C(=O)NC(CC(C)C)C2=O)cc(OC)c1OC (centres undefined)")
"TRUE"
>>> group_label("Cc1ccc(S(=O)(=O)CC(=O)NCc2ccccc2)cc1")
"TRUE"
>>> group_label("CCN1C(=O)c2ccccc2Sc2ccc(C(=O)O)cc21")
"TRUE"
>>> group_label("COC(=O)C1(C(C[N+](=O)[O-])c2ccc(C)cc2)C(=O)NCC1c1ccco1 (centres undefined)")
"TRUE"
>>> group_label("CCC(C)CN1CCC(CO)(Cc2ccccc2Cl)CC1 (centres undefined)")
"TRUE"
>>> group_label("O=C(c1cc(-c2ccccc2)nc2ccccc12)N1CCCC1")
"TRUE"
>>> group_label("COc1c(C)cccc1C(=O)NCCCNC(=O)c1ccc(C)nc1")
"TRUE"
>>> group_label("COCC(=O)Nc1ccc(S(=O)(=O)NCC2CCCO2)cc1 (centres undefined)")
"TRUE"
>>> group_label("O=C(CSCc1ccc(Br)cc1)NC1CC1")
"TRUE"
>>> group_label("Cc1cccc(Nc2nc(N)c([N+](=O)[O-])c(NCCO)n2)c1")
"TRUE"
>>> group_label("CNC(=S)N1CCN(c2nc(-c3ccc(F)cc3)cs2)CC1")
"FALSE"
>>> group_label("CCOc1ccc(NC(=S)NC(=O)c2cccnc2)c([N+](=O)[O-])c1")
"FALSE"
>>> group_label("COc1ccc(C(=O)N[C@H](C(=O)NCCc2ccc3c(c2)OCCO3)C(C)C)cc1")
"TRUE"
>>> group_label("O=C(Nc1ccc(OC(F)(F)F)cc1)c1cnccn1")
"TRUE"
>>> group_label("Cc1ccc(C(=O)NCC(=O)NC2CCCCCC2)cc1")
"TRUE"
>>> group_label("O=C(c1ccc(F)cc1)N1CCC2(CC1)OCCO2")
"TRUE"
>>> group_label("CCc1nnc(NC(=O)c2cc(C)nc3ccccc23)s1")
"TRUE"
>>> group_label("Cc1cc(=O)[nH]c(Nc2ccc(N(C)C)cc2)n1")
"TRUE"
>>> group_label("Cc1[nH]c2ccccc2c1C(=O)CSc1ccccn1")
"FALSE"
>>> group_label("c1ccc(C2CC(c3ccccc3)C(c3ccccc3)N2)cc1 (centres undefined)")
"FALSE"
>>> group_label("Cl.NCc1ccc2[nH]c(=O)[nH]c2c1")
"TRUE"
>>> group_label("O=C(O)C1C2C=CC(C2)C1C(=O)Nc1cccc(C(F)(F)F)c1 (centres undefined)")
"TRUE"
>>> group_label("C=CCN(c1ccccc1)S(=O)(=O)c1cccc(C(=O)NCc2ccco2)c1")
"TRUE"
>>> group_label("CCCS(=O)(=O)N1CCCC(C(=O)N2CCCCC2)C1 (centres undefined)")
"TRUE"
>>> group_label("CCOC(=O)CC(NC(=O)c1ccccc1F)c1ccc(C)cc1 (centres undefined)")
"TRUE"
>>> group_label("COc1ccc(C)cc1CN1C(=O)c2ccccc2C1=O")
"FALSE"
>>> group_label("CCc1ccccc1NS(=O)(=O)Cc1ccccc1")
"TRUE"
>>> group_label("COc1ccc(CC(=O)Nc2ccc3c(c2)C(=O)N(CCC(=O)O)C3=O)cc1")
"TRUE"
>>> group_label("O=C(CSc1ccncc1)Nc1ccc2ccccc2c1")
"FALSE"
>>> group_label("CC1CCC2(CC1)SCC(=O)N2c1ccc(F)cc1 (centres undefined)")
"TRUE"
>>> group_label("CCOC(=O)N1CCN(Cc2nc3cc([N+](=O)[O-])ccc3n2C)CC1")
"TRUE"
>>> group_label("O=C(NCCOC(=O)c1ccc(F)cc1)c1ccc(F)cc1")
"TRUE"
>>> group_label("CC1Oc2ccccc2N(CC(=O)NCc2ccc3c(c2)OCO3)C1=O (centres undefined)")
"TRUE"
>>> group_label("CC(=O)N1c2ccccc2CCc2ccc(N)cc21.Cl")
"TRUE"
>>> group_label("CCCCc1ccc(NC(=O)N[C@@H](CC(C)C)C(=O)O)cc1")
"TRUE"
>>> group_label("CCC1(c2ccccc2)NC(=O)N(CC(=O)Nc2ccc(N3CCOCC3)cc2)C1=O (centres undefined)")
"TRUE"
>>> group_label("C=C(C)n1c(=O)n(Cc2ccccc2C)c2ccccc21")
"TRUE"
>>> group_label("COc1ccc(-c2csc(COC(=O)C(C)(C)C)n2)cc1")
"FALSE"
>>> group_label("CCOC(=O)c1sc(NC(=O)OC)c(C(=O)OC)c1C")
"FALSE"
>>> group_label("Clc1cccc(CN2CCSCC2)c1")
"FALSE"
